Biological target: T1, interleukin-6 (IL-6) (human, UniProt P05231)
T1 construct: interleukin-6, human; A biotinylated IL-6 was used in the cell uptake assays; for SPR and ELISA the IL-6 was amine-coupled or coated
T1 sequence (P05231 30-212): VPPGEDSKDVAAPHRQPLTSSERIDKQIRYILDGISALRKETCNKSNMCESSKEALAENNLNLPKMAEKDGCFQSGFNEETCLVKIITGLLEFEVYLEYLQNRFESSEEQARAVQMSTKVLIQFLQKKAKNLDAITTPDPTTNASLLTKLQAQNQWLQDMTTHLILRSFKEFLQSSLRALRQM
Test: SPR; IL-6 amine-coupled on a CM5 chip (Biacore T200); analytes in multi-cycle kinetics, 0.39 to 100 nM, 30 µL/min, 180 s association, 1200 s dissociation, HBS-N + 10 mM CaCl2; global fit, 1:1 model; where koff was below the detection limit KD was estimated from kon and the theoretical maximum koff
Details: both partners purified
measured.quantity: koff

Prompt line: Quick one: give measured koff for siltuximab-TGN 1:25 (antibody, V domains shown, as the heavy chain of m1; as the light chain of m1; Heterogeneous conjugate; See m1 for the DrugBank ids; also called the 1:25 variant; source: HEK293T, transfected, purified (Protein A, SEC), then conjugated with Tris-GalNAc-PEG5-sulfo-NHS ester at 1:25; copies: 2 + 2) VH: EVQLVESGGKLLKPGGSLKLSCAASGFTFSSFAMSWFRQSPEKRLEWVAEISSGGSYTYYPDTVTGRFTISRDNAKNTLYLEMSSLRSEDTAMYYCARGLWGYYALDYWGQGTSVTVSS VL: QIVLIQSPAIMSASPGEKVTMTCSASSSVSYMYWYQQKPGSSPRLLIYDTSNLASGVPVRFSGSGSGTSYSLTISRMEAEDAATYYCQQWSGYPYTFGGGTKLEIK
Response line: < 1e-05 s⁻¹
